Biological target: T1, recombinant human LAG3 expressed with a C-terminal myc-myc-hexahistidine tag (human, UniProt P18627 29-450)
T1 construct: also called hLAG3-mmh; hLAG3.mmh
T1 sequence (P18627 other isoform, or with tags, fused parts or gaps limits assumed): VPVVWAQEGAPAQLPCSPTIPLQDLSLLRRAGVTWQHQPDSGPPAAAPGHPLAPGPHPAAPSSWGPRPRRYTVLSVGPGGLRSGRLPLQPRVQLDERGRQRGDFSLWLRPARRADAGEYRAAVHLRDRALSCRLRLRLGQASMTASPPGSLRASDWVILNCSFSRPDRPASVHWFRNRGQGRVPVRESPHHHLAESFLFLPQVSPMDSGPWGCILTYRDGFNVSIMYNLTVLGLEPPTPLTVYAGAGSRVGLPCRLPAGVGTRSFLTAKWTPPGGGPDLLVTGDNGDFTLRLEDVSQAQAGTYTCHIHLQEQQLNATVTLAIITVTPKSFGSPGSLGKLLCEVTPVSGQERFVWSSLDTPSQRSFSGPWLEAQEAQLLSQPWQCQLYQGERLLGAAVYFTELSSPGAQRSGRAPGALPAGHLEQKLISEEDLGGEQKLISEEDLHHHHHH
Test: SPR, mAb captured, 37 C
Listing of entries alongside the reported koff.
Output spec: scalar in s⁻¹, unitless text.

# BINDER, UNITS SYMBOL, koff
records = [
    ("H4sH15479P (antibody, V domains shown) VH: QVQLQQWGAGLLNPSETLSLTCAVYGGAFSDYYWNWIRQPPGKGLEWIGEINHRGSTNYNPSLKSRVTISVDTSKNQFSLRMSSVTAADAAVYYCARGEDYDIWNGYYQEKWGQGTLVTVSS VL: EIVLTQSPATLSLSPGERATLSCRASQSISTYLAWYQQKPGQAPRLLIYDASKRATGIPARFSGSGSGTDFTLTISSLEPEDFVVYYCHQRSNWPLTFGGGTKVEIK", "s⁻¹", "4.24e-05"),
]

In plain terms, H4H15479P (antibody, human IgG4, V domains shown) VH: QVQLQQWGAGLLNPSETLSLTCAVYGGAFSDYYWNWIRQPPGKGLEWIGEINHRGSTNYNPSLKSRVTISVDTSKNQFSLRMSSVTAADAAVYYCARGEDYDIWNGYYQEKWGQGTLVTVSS VL: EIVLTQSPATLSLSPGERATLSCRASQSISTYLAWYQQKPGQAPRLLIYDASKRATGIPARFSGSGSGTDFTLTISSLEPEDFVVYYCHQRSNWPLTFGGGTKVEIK has a documented koff of 4.08e-05
